IC50, human PDE4D (Homo sapiens (Human), UniProt Q08499): measured values

Use these answered entries as a reference point.
>  <input_smiles>
CCCn1c2c(n3c(C4(C5CC5)CC4)nnc3c1=O)CCCC2

>  <tgt>
human PDE4D (Homo sapiens (Human), UniProt Q08499)
Sequence (Q08499 other isoform, or with tags, fused parts or gaps): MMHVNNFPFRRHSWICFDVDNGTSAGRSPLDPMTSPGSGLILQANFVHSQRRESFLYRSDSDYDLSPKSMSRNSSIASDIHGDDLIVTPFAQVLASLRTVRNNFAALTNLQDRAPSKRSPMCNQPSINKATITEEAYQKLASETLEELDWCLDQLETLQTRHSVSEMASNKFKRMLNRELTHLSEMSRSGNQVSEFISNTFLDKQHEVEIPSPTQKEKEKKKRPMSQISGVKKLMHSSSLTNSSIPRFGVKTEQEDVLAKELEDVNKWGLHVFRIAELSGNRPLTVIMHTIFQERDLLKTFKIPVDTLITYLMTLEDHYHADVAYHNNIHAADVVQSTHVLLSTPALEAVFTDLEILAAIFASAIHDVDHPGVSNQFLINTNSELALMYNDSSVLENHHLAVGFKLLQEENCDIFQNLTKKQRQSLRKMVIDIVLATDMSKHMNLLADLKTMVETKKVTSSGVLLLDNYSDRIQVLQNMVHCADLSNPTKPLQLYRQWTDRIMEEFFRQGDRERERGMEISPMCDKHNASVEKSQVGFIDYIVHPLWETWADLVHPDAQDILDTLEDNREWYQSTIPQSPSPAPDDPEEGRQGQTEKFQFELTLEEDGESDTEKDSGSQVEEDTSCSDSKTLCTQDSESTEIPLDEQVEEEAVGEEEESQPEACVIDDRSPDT

>  <meas_value>
12.7 µM

$$$$
>  <input_smiles>
CCCCn1c2c(n3c(C4(C5CC5)CC4)nnc3c1=O)COCC2

>  <tgt>
human PDE4D (Homo sapiens (Human), UniProt Q08499)

>  <meas_value>
21.8 µM

$$$$
>  <input_smiles>
CCCCn1c2c(n3c(C4(C5CC5)CC4)nnc3c1=O)CCOC2

>  <tgt>
human PDE4D (Homo sapiens (Human), UniProt Q08499)

>  <meas_value>
> 100 µM

$$$$

Read the next record carefully.
Which IC50 is reported for this compound? O=c1c2nnc(C3(C4CC4)CC3)n2c2c(n1CC1CC1)CCOC2
16.4 µM
